testMethodNotes: Tmax in Sprague-Dawley rat at 24 mg/kg, po by LC-MS analysis
Format: ADME, organism-based
experimentalSetup: in vivo
measurementType: Tmax (h)
Please reply with the bare figure in h and do not write the unit itself.

Report Tmax for Cc1cc(/C=C/C#N)cc(C)c1Oc1nc(NC2CCN(Cc3ccc(S(N)(=O)=O)cc3)CC2)nc2ccsc12
1.7

###

testMethodNotes: Selectivity index, ratio of CC50 for human MT4 cells to EC50 for reverse transcriptase Y188L mutant in human MT4 cells infected HIV1 3B
measurementType: selectivity ratio

Report selectivity ratio, nothing else, for this molecule: Cc1cn([C@H]2C[C@H](N=[N+]=[N-])[C@@H](CO)O2)c(=O)[nH]c1=O
> 1180

Identify measured selectivity ratio associated with Cc1cc(C#N)cc(C)c1Oc1nc(Nc2ccc(C#N)cc2)nc(N)c1Br
> 224

###

testMethodNotes: Selectivity index, ratio of CC50 for human MT4 cells to EC50 for wild type HIV1 3B harboring reverse transcriptase infected in human MT4 cells
measurementType: selectivity ratio
Provide a numeric answer; units are not to be included.

For the molecule Cc1cn([C@H]2C[C@H](N=[N+]=[N-])[C@@H](CO)O2)c(=O)[nH]c1=O [ZIDOVUDINE] , give its reported selectivity ratio.
625

###

testMethodNotes: Selectivity index, ratio of CC50 for human MT4 cells to EC50 for reverse transcriptase F227L/V106A double mutant in human MT4 cells infected HIV1 3B
experimentalSetup: MT4 cells
# maps each entry to its selectivity ratio
API doc: respond with a numeric literal and nothing else, no unit.

Some entries whose results are on file:
Cc1cc(/C=C/C#N)cc(C)c1Oc1nc(NC2CCN(Cc3cccc(Cl)c3)CC2)nc2ccsc12 : 72
Cc1cc(/C=C/C#N)cc(C)c1Oc1nc(NC2CCN(Cc3cccc(F)c3)CC2)nc2ccsc12 : 84
Cc1cc(/C=C/C#N)cc(C)c1Oc1nc(NC2CCN(Cc3cccc(Br)c3)CC2)nc2ccsc12 : 85
Cc1cc(C#N)cc(C)c1Oc1nc(NC2CCN(Cc3ccc(S(N)(=O)=O)cc3)CC2F)nc2ccsc12 (centres undefined) : 590
Cc1cc(/C=C/C#N)cc(C)c1Oc1nc(NC2CCN(Cc3ccccc3C#N)CC2)nc2ccsc12 : 60

Lab note: next compound to report on.
Supply reported selectivity ratio belonging to this compound: Cc1cc(C#N)cc(C)c1Oc1nc(NC2CCN(Cc3ccc(S(N)(=O)=O)cc3)CC2)nc2sccc12
2730

###

Listing of recorded selectivity ratio by entry.
testMethodNotes: Selectivity index, ratio of CC50 for human MT4 cells to EC50 for reverse transcriptase E138K mutant in human MT4 cells infected HIV1 3B
experimentalSetup: MT4 cells

As a guide, the following entries are already answered.
Cc1cc(C#N)cc(C)c1Oc1nc(NC2CCN(Cc3ccc(S(C)(=O)=O)cc3)CC2)nc2sccc12 : 164
Cc1cc(/C=C/C#N)cc(C)c1Oc1nc(NC2CCN(Cc3ccc(Cl)cc3)CC2)nc2ccsc12 : 26

Consider the additional molecule presented here.
Please supply the value of reported selectivity ratio for the item COC(=O)c1ccc(CN2CCC(Nc3nc(Oc4c(C)cc(C#N)cc4C)c4ccsc4n3)CC2)cc1
805

###

testMethodNotes: AUC(0 to t) in Sprague-Dawley rat at 2 mg/kg, iv by LC-MS analysis
Format: ADME, organism-based
experimentalSetup: in vivo
measurementType: AUC(0-t) (ng·h/mL)
Could you give me the number in ng·h/mL? Just the number is fine.

Provide AUC(0-t) value for the following molecule: Cc1cc(/C=C/C#N)cc(C)c1Oc1nc(NC2CCN(Cc3ccc(S(N)(=O)=O)cc3)CC2)nc2ccsc12
1370
